Target: Gly binding site in GluN1/2B receptors (Rattus norvegicus, UniProt P35439+Q00960)
Assay: Inhibition of Gly responses at recombinant GluN1/2B
Assignment: determine reported Ki for the given compounds.

>>> result("CCc1ccccc1-c1ccc(C(=O)NC[C@@H](N)C(=O)O)o1")
"~100 nM"

Task: Given the entry N[C@H](CNC(=O)c1ccc(-c2ccc(Cl)cc2[N+](=O)[O-])o1)C(=O)O , report its measured Ki.
Result: ~100 nM
